test-summary: in vitro
stated-conditions: African green monkey, uninfected quiescent Vero-B cells
readout-name: CC50 at 4 days (µM)
// note: answer is a bare numeric in µM

Study these solved cases before continuing.
COc1cccc(NC(C(=O)c2c[nH]c3c(C)cccc23)c2cc3ccccn3n2)c1 (stereo not drawn) ... 41
COc1cccc(NC(C(=O)c2c[nH]c3ccccc23)c2ccccc2F)c1 (stereo not drawn) ... 20
COc1cccc(NC(C(=O)c2c[nH]c3ccccc23)c2ccc(C#N)nc2)c1 (stereo not drawn) ... 50

Would you kindly share the measured CC50 at 4 days for COc1cccc(NC(C(=O)c2c[nH]c3ccccc23)c2cnc(OC)nc2)c1 (stereo not drawn) ?
63

What do you have for O=C(c1c[nH]c2ccccc12)C(NCc1cccs1)c1ccccc1 (stereo not drawn) ?
71

What do you have for COc1cncc(NC(C(=O)c2c[nH]c3ccccc23)c2ccc(OC)nc2)c1 (stereo not drawn) ?
63

====

test-summary: in vitro
stated-conditions: African green monkey, uninfected quiescent Vero-B cells
readout-name: CC50 at 4 days (µM)
// note: answer is a bare numeric in µM

Study these solved cases before continuing.
COc1cc(CO)cc(NC(C(=O)c2c[nH]c3ccc(F)cc23)c2ccccc2)c1 (stereo not drawn) [CPD-296] ... 31
COc1cccc(NC(C(=O)c2c[nH]c3ccc(C#N)cc23)c2ccccc2)c1 (stereo not drawn) [CPD-126] ... 16
COc1cc(CO)cc(NC(C(=O)c2c[nH]c3ccccc23)c2cnc(OC)cn2)c1 (stereo not drawn) [CPD-288] ... 77
COc1cc(CO)cc(NC(C(=O)c2c[nH]c3ccccc23)c2ccc(OC)nc2)c1 (stereo not drawn) [CPD-283] ... 56
COc1cc(NC(C(=O)c2c[nH]c3ccc(Cl)cc23)c2ccccc2)ccn1 (stereo not drawn) [CPD-099] ... 12

Would you kindly share the measured CC50 at 4 days for COc1cccc(NC(C(=O)c2c[nH]c3cccc(OC)c23)c2ccccc2)c1 (stereo not drawn) [CPD-231] ?
18

What do you have for CCc1cncc(NC(C(=O)c2c[nH]c3ccccc23)c2ccccc2)c1 (stereo not drawn) [CPD-248] ?
15

What do you have for COc1cccc(NC(C(=O)c2c[nH]c3ccccc23)c2cncc(OC)c2)c1 (stereo not drawn) [CPD-312] ?
69

What do you have for COc1cc(NC(C(=O)c2c[nH]c3c(Cl)cccc23)c2ccccc2)ccn1 (stereo not drawn) [CPD-101] ?
11

What do you have for O=C(O)c1cccc(NC(C(=O)c2c[nH]c3ccccc23)c2ccccc2)c1 (stereo not drawn) [CPD-071] ?
135

What do you have for COc1cc(NC(C(=O)c2c[nH]c3c(C)cccc23)c2ccc(F)cc2)cc(OC)c1 (stereo not drawn) [CPD-341] ?
12

====

test-summary: in vitro
stated-conditions: African green monkey
// classify: if (CC50 < 40 µM) met else not met

COc1cc(NC(C(=O)c2cn(CCCO)c3ccccc23)c2ccccc2)cc(OC)c1 (stereo not drawn) ... met
COc1cccc(NC(C(=O)c2c[nH]c3ccccc23)c2ccccc2)c1 (stereo not drawn) ... met
COc1cccc(NC(C(=O)c2c[nH]c3ccccc23)c2cccnc2)c1 (stereo not drawn) ... not met
COc1ccc(NC(C(=O)c2c[nH]c3ccccc23)c2ccccc2)cc1OC (stereo not drawn) ... not met
COCCn1cc(C(=O)C(Nc2cccc(OC)c2)c2ccccc2)c2ccccc21 (stereo not drawn) ... not met
COc1cccc(NC(C(=O)c2cn(CCN(C)C)c3ccccc23)c2ccccc2)c1 (stereo not drawn) ... not met

Would you kindly verify if CC50 of COc1cccc(NC(C(=O)c2cn(CCO)c3ccc(F)cc23)c2ccccc2)c1 (stereo not drawn) is strictly less than 40 µM?
met

What do you have for COc1cc(NC(C(=O)c2cn(CCO)c3ccccc23)c2ccccc2)cc(OC)c1 (stereo not drawn) ?
not met

What do you have for COc1cccc(NC(C(=O)c2cn(CCO)c3cc(F)ccc23)c2ccccc2)c1 (stereo not drawn) ?
met

====

test-summary: in vitro
stated-conditions: African green monkey, uninfected quiescent Vero-B cells
// classify: if (CC50 at 4 days < 40 µM) y else n

COc1cccc(NC(C(=O)c2c[nH]c3ccccc23)c2nccn2C)c1 (stereo not drawn) [CPD-026] ... n
COc1cc(NC(C(=O)c2c[nH]c3ccccc23)c2ccc(F)cc2)ccn1 (stereo not drawn) [CPD-090] ... y
COc1cccc(NC(C(=O)c2c[nH]c3cc(Cl)ccc23)c2cn3ccccc3n2)c1 (stereo not drawn) [CPD-150] ... n
COc1cccc(NC(C(=O)c2c[nH]c3ccccc23)c2cccc(-c3cncnc3)c2)c1 (stereo not drawn) [CPD-054] ... n

Next item in the queue.
Would you kindly verify if CC50 at 4 days of COc1cc(CO)cc(NC(C(=O)c2c[nH]c3ccccc23)c2ccc(F)cc2)c1 (stereo not drawn) [CPD-313] is strictly less than 40 µM?
n

====

Each entry below carries its reported CC50 at 4 days.
test-summary: in vitro
stated-conditions: African green monkey, uninfected quiescent Vero-B cells

Would you kindly share the measured CC50 at 4 days for COC(=O)c1ccc2c(C(=O)C(Nc3cccc(OC)c3)c3ccccc3)c[nH]c2c1 (centres unmarked) ?
16 µM

What do you have for COc1cccc(NC(C(=O)c2c[nH]c3ccccc23)c2cn3c(F)cccc3n2)c1 (centres unmarked) ?
84 µM

What do you have for COc1cccc(NC(C(=O)c2c[nH]c3cccc(C)c23)c2ccccc2)c1 (centres unmarked) ?
14 µM

What do you have for COc1cccc(NC(C(=O)c2cn(S(C)(=O)=O)c3ccc(F)cc23)c2ccccc2)c1 (centres unmarked) ?
> 110 µM

What do you have for NS(=O)(=O)c1cccc(NC(C(=O)c2c[nH]c3ccccc23)c2ccccc2)c1 (centres unmarked) ?
58 µM

====

test-summary: in vitro
stated-conditions: African green monkey, uninfected quiescent Vero-B cells
readout-name: CC50 at 4 days (µM)
// note: answer is a bare numeric in µM

Study these solved cases before continuing.
COc1cncc(NC(C(=O)c2c[nH]c3c(CCO)cccc23)c2ccccc2)c1 (stereo not shown) [CPD-364] ... 62
COc1cccc(NC(C(=O)c2c[nH]c3ccc(C)cc23)c2ccccc2)c1 (stereo not shown) [CPD-130] ... 15
COc1cc(CN(C)C)cc(NC(C(=O)c2c[nH]c3ccccc23)c2ccccc2)c1 (stereo not shown) [CPD-263] ... 13

Now for the compound whose CC50 at 4 days we want.
Would you kindly share the measured CC50 at 4 days for CCOc1ccc(NC(C(=O)c2c[nH]c3ccccc23)c2ccccc2)cc1OC (stereo not shown) [CPD-173] ?
69

====

test-summary: in vitro
stated-conditions: African green monkey
// classify: if (CC50 < 20 µM) Criterion met else Criterion not met

Consider the worked cases shown below.
COc1cc(NC(C(=O)c2c[nH]c3cc(Cl)ccc23)c2ccccc2)cc(OC)c1 (stereo not drawn) ... Criterion met
COc1cc(NC(C(=O)c2c(C)[nH]c3ccccc23)c2ccccc2)cc(OC)c1 (stereo not drawn) ... Criterion met
COc1cccc(NC(C(=O)c2cn(CCCO)c3ccccc23)c2ccccc2)c1 (stereo not drawn) ... Criterion not met
COc1cccc(NC(C(=O)c2cn(CC(=O)O)c3ccccc23)c2ccccc2)c1 (stereo not drawn) ... Criterion not met
COc1cc(NC(C(=O)c2cn(CCCO)c3ccc(F)cc23)c2ccccc2)cc(OC)c1 (stereo not drawn) ... Criterion met

Would you kindly verify if CC50 of COc1cccc(NC(C(=O)c2cn(CCN)c3ccccc23)c2ccccc2)c1 (stereo not drawn) is strictly less than 20 µM?
Criterion met

What do you have for COc1cc(NC(C(=O)c2c[nH]c3ccccc23)c2ccccc2)cc(OC)c1 (stereo not drawn) ?
Criterion not met

What do you have for COc1cccc(NC(C(=O)c2cn(CCO)c3ccccc23)c2ccccc2)c1 (stereo not drawn) ?
Criterion not met

What do you have for COc1cccc(NC(C(=O)c2cn(CCN3CCOCC3)c3ccccc23)c2ccccc2)c1 (stereo not drawn) ?
Criterion not met

====

Tested on: uninfected quiescent Vero-B cells
test-summary: Cytotoxic assay in uninfected quiescent Vero-B cells (MTS/PMS)
stated-conditions: 4 days (Table 3)
Each entry below carries its reported CC50.
// note: answer is a bare numeric in µM

COc1cncc(NC(C(=O)c2c[nH]c3ccccc23)c2ccccc2)c1 (stereo not drawn) [CPD-067] ... 20
O=C(c1c[nH]c2ccccc12)C(Nc1cccc(OC(F)(F)F)c1)c1ccccc1 (stereo not drawn) [CPD-005] ... 5
COc1cc(F)cc(NC(C(=O)c2c[nH]c3ccccc23)c2ccccc2)c1 (stereo not drawn) [CPD-015] ... 22
COc1nc(NC(C(=O)c2c[nH]c3ccccc23)c2ccccc2)ns1 (stereo not drawn) [CPD-070] ... 90
COc1cc(NC(C(=O)c2c[nH]c3ccccc23)c2cccnc2)cc(OC)c1 (stereo not drawn) [CPD-236] ... 69

Now for the molecule whose CC50 we want.
Would you kindly share the measured CC50 for COc1cccc(NC(C(=O)c2c[nH]c3ccccc23)c2ccc(F)cc2)c1 (stereo not drawn) [CPD-149] ?
14
